Measured on: T1, AahII toxin of Androctonus australis hector (Androctonus australis hector, UniProt P01484 20-83)
T1 construct: mature; also called Aahll
T1 sequence: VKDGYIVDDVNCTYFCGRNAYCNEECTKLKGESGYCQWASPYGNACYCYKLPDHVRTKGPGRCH
Test method notes: SPR (BIAcore), AahII immobilised on CM5 chip, Nb in mobile phase
Observable: kon (M⁻¹ s⁻¹)
Please state the figure in M⁻¹ s⁻¹; there is no need to write the unit.

Worked set:
NbAahII36 (VHH, also called cluster C) VHH: QVQLVESGGGSVQAGGSLRLSCAASGYTFSNYRMGWFRQAPGKECELVSTILTDGSTNYADSVKGRFTISRDNAKNTVYLLMNNLKAEDTAVYYCAAGNSRKGYLRRCGGTDFGYWGQGTQVTVSS | 2.04e+06
NbAahII08 (VHH, also called cluster F) VHH: DVQLVESGGGSVQAGGSLRLSCAASGDSYSNYYMAWFRQAPGKEREGVAHINRSGRITLYADSVKGRFTMSRDNAKNTVYLQMNSLKPEDTAIYYCAAGVRTHMPPLASYGFDYWGQGTQVTVSS | 1.19e+07
NbAahII17 (VHH, also called cluster D) VHH: DVQLVESGGGSVQAGGSLRLSCAASGVTLNNYCVGWFRQAPGKEREGVAAFKSGGSFTYYADSVKGRFTISKDNAKNTMYLQMNSLNSDDTAMYYCAVTRNSCLGLAKFRPSSYNYWGQGTQVTVSS | 6.12e+06
NbAahII39 (VHH, also called cluster G) VHH: QVQLVESGGGSVQAGGSLRLSCAASGYTCTKFNMGWYRQAPGKERKMVATIRRDGTTYYADSVKGRFTISQDNAKNTVYLQMTSLKPEDSAMYYCSFRCVTPSLPYWGQGTQVTVSS | 6.41e+06

Query block: What kon value was documented for this binder, NbAahII10 (VHH, also called NbAahIIlO; NbAahII lO) VHH: QVQLVESGGGSVQAGGSLKLSCAASGYFYSSNYCLGWFRQAPGKEREGVAQINIAPGRIYYADSVKGRFTISRDNAKNTVYLQMDSLKPEDTAIYYCASTAGNMYYGLRGPADFDYWGQGTQVTVSS ?
Result block: 1.14e+06

Query block: // kon lookup, key: NbAahII12 (VHH, Purified from E. coli periplasm with His6; also called cluster I) VHH: QVQLVESGGGLVQPGGSLRLSCAASGFSFNIYAMSWVRQAPGKQFEWVSGIHPNGRSTYYTDSVKGRFTISRDNAKNTLYLQLDSLKTEDTAMYYCAKGVLTKYVGGARGQGTQVTVSS
Result block: 5.63e+06

Query block: Form field: reported kon of NbAahII18 (VHH, also called NbAahlllδ; NbAahll l δ) VHH: QVQLQESGGGSVQAGGSLRLSCAASGDSYSNYYMAWFRQAPGKEREGVAHINRSGRITLYADSVKGRFTMSRDNAKNTVYLQMNSLRPEDTAIYYCAAGVRTHMPPLASYGFDYWGQGTQVTVSS
Result block: 8.95e+06

Query block: Find the recorded kon belonging to NbAahII19 (VHH, Purified from E. coli periplasm with His6; also called cluster I) VHH: QVQLQESGGGLVQPGGSLRLSCAASGFSFNIYAMSWVRQAPGKQFEWVSGIHPDGRSTYYTDSVKGRFTISRDNAKNTLYLQLDSLKTEDTAMYYCAKGVLTKYVGSARGQGTQVTVSS and report it.
Result block: 5.46e+06
